Overview of reported pIC50 across a group of molecules:
# measurement target: JAK2 (Homo sapiens (Human), UniProt O60674)
# Sequence (O60674 whole entry): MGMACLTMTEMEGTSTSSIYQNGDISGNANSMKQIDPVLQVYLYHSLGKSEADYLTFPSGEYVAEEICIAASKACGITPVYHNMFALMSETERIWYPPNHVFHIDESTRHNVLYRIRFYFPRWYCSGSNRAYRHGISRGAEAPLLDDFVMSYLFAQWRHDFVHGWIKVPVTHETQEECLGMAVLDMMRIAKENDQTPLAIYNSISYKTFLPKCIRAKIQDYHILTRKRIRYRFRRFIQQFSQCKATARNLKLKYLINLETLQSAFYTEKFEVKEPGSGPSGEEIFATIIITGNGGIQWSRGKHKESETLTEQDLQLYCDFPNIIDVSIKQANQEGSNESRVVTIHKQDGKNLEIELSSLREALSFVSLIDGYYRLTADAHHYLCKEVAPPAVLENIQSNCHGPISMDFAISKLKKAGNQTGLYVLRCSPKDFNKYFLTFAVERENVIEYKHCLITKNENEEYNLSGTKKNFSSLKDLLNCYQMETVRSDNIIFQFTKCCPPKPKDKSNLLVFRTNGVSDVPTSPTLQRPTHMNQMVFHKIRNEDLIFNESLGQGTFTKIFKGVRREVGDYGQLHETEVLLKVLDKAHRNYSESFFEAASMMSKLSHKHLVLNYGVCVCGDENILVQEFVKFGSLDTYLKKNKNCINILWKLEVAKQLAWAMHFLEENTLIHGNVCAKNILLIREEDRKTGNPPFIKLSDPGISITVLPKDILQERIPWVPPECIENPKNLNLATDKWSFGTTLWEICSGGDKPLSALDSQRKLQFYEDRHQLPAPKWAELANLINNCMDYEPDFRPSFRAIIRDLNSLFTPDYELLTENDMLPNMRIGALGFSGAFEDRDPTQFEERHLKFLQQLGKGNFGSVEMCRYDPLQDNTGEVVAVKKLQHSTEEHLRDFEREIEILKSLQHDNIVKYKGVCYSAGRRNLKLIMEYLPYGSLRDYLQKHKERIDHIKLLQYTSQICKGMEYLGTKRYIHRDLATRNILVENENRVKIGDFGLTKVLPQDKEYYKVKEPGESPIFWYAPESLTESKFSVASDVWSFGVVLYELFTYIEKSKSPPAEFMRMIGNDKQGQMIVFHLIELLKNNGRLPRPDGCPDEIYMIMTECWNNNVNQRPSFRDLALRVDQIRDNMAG
# test: Inhibition of JAK2, luminescence kinase assay (ADP-Glo)
# measurement setup: purified recombinant JAK2
pIC50: −log10 of the molar value.

CC(C)(CC(=O)NCC(F)(F)F)n1cc(-c2c[nH]c3ncccc23)cn1    7.30 to 7.70
CS(=O)(=O)N1CCC(CC(=O)NCC(F)(F)F)(n2cc(-c3ncnc4[nH]ccc34)cn2)CC1    < 7.30

Query: Need pIC50 of O=C(NCC(F)(F)F)C1(Nc2nc(-c3c[nH]c4ncccc34)ncc2F)CCS(=O)(=O)CC1 , thanks.
Reply: 7.30 to 7.70

Query: Quick check: pIC50 of CC(C)(CC(=O)NCC(F)(F)F)n1cc(-c2ncnc3[nH]ccc23)cn1 ?
Reply: 7.30 to 7.70

Query: Would you kindly share the measured pIC50 for O=C(CC1(n2cc(-c3ncnc4[nH]ccc34)cn2)CCS(=O)(=O)CC1)NCC(F)(F)F ?
Reply: < 7.30

* * *

# measurement target: UniProt O60674
# test: Inhibition of JAK2, luminescence kinase assay (ADP-Glo)
# measurement setup: purified recombinant JAK2
# Description: The study of the effect of compounds on the activity of purified recombinant JAK was performed by studying the inhibitory activity of the compounds on JAK from the enzymatic level. The experimental principle is to use a luminescence kinase assay to detect the ADP content produced by the reaction of JAK with the substrate Poly (4:1 Glu, Tyr) peptide: after ADP is converted to ATP, ATP can act as a substrate for the Ultra-Glo luciferase catalytic reaction, producing an optical signal. […]
pIC50: −log10 of the molar value.
result type: pIC50

These solved cases illustrate the format of a correct answer.
CCS(=O)(=O)N1CC(CC(=O)NCC(F)(F)F)(n2cc(-c3c[nH]c4ncccc34)cn2)C1 [Example 7]    < 7.30
N#CC1(Nc2ccnc(-c3ccnc4[nH]ccc34)n2)CCS(=O)(=O)CC1 [Example 53]    < 7.30
CCS(=O)(=O)N1CC(CC#N)(n2cc(-c3c[nH]c4ncccc34)cn2)C1 [Example 1]    7.30 to 7.70

Query: Provide value of pIC50 for this record tested with UniProt O60674: N#CCC1(n2cc(-c3ncnc4[nH]ccc34)cn2)CCS(=O)(=O)CC1 [Example 3]
Reply: 7.30 to 7.70

Query: Provide value of pIC50 for this record tested with UniProt O60674: N#CC1(Nc2ccnc(-c3ccnc4[nH]ccc34)n2)CCC1 [Example 56]
Reply: < 7.30

Query: I'm curious: which pIC50 was measured for CS(=O)(=O)N1CC(CC(=O)NCC(F)(F)F)(n2cc(-c3ccnc4[nH]ccc34)cn2)C1 [Example 15] tested on UniProt O60674?
Reply: 7.30 to 7.70

Query: Checklist item: pIC50 tested on UniProt O60674, entry CS(=O)(=O)N1CC(C#N)(Nc2ccnc(-c3c[nH]c4ncccc34)n2)C1 [Example 48] , value?
Reply: < 7.30

Query: API: value(readout= pIC50, system= UniProt O60674, query= N#CCC1(n2cc(-c3c[nH]c4ncccc34)cn2)CCS(=O)(=O)CC1 [Example 2] )
Reply: 7.30 to 7.70

Query: Under UniProt O60674: pIC50 value of N#CC1(Nc2ccnc(-c3ncnc4[nH]ccc34)n2)CCS(=O)(=O)CC1 [Example 52] ?
Reply: < 7.30

* * *

IC50 listing for selected compounds.
# measurement target: UniProt:P52333
# Sequence (P52333 whole entry): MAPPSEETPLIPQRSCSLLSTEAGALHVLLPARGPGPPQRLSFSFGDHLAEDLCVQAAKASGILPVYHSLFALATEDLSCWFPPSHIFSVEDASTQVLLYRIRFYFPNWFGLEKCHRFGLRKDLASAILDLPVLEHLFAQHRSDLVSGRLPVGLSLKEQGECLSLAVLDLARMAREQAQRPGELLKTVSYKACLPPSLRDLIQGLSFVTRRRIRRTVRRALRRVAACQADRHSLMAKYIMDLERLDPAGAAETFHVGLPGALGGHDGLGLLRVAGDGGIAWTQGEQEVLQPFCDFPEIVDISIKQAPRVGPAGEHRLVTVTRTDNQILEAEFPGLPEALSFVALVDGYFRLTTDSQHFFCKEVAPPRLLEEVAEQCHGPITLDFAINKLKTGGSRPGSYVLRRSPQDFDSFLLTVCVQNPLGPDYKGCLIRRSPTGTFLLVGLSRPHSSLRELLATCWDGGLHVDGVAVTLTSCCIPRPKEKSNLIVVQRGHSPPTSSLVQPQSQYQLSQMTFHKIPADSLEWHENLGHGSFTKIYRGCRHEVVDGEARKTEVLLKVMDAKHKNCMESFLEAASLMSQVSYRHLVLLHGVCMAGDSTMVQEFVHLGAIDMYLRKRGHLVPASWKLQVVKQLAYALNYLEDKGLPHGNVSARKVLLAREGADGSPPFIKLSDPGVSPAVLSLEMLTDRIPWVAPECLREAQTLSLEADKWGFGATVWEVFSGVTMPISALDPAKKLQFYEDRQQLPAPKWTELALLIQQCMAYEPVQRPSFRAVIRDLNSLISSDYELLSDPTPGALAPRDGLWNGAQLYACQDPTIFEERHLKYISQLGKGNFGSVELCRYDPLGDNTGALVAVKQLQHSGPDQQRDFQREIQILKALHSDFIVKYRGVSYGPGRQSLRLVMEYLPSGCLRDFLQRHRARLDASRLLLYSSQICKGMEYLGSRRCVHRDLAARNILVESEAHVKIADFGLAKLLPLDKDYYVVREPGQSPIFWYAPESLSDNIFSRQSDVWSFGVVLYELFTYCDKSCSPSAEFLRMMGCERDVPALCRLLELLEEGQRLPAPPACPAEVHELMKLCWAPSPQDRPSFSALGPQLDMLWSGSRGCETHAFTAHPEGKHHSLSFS
# test: Inhibition of JAK3, luminescence kinase assay (ADP-Glo)
# measurement setup: purified recombinant JAK3

The following compounds have reported results that may help.
N#CC1(Nc2ccnc(-c3ncnc4[nH]ccc34)n2)CCCC1 [Example 58]    > 50 nM
O=C(NCC(F)(F)F)C1(Nc2ccnc(-c3c[nH]c4ncccc34)n2)CCN(S(=O)(=O)C2CC2)CC1 [Example 39]    20 to 50 nM
CC[C@](C)(C#N)Nc1ccnc(-c2ncnc3[nH]ccc23)n1 [Example 61]    > 50 nM
N#CC1(Nc2ccnc(-c3ccnc4[nH]ccc34)n2)CCS(=O)(=O)CC1 [Example 53]    20 to 50 nM

Query: // IC50 lookup, key: NC(=O)CC1(n2cc(-c3c[nH]c4ncccc34)cn2)CCS(=O)(=O)CC1 [Example 18]
Reply: < 20 nM

Query: For the compound shown here, O=C(CC1(n2cc(-c3ccnc4[nH]ccc34)cn2)CCS(=O)(=O)CC1)NCC(F)(F)F [Example 21] , give the reported IC50.
Reply: > 50 nM

* * *

# measurement target: JAK2 (Homo sapiens (Human))
# test: Inhibition of JAK2, luminescence kinase assay (ADP-Glo)
# measurement setup: purified recombinant JAK2
pIC50: −log10 of the molar value.
result type: pIC50

Below are worked cases with known answers.
CS(=O)(=O)N1CC(CC(N)=O)(n2cc(-c3ncnc4[nH]ccc34)cn2)C1    7.30 to 7.70
O=C(CC1(n2cc(-c3ccnc4[nH]ccc34)cn2)CCS(=O)(=O)CC1)NCC(F)(F)F    < 7.30
CS(=O)(=O)N1CC(Nc2ccnc(-c3c[nH]c4ncccc34)n2)(C(=O)NCC(F)(F)F)C1    < 7.30

The record that follows has no pIC50 shown yet.
Query: Fill blank: measured pIC50 of the molecule O=C(CC1(n2cc(-c3ccnc4[nH]ccc34)cn2)CCCC1)NCC(F)(F)F is ____.
Reply: < 7.30

* * *

# measurement target: UniProt:P52333
# test: Inhibition of JAK3, luminescence kinase assay (ADP-Glo)
# measurement setup: purified recombinant JAK3
pIC50: −log10 of the molar value.
In this section we review reported pIC50 values for a set of compounds.

N#CC1(Nc2ccnc(-c3ncnc4[nH]ccc34)n2)CCS(=O)(=O)CC1    < 7.30
N#CC1(Nc2ccnc(-c3c[nH]c4ncccc34)n2)CCS(=O)(=O)CC1    7.30 to 7.70

Query: Param readout = pIC50; param system = UniProt:P52333; param query = O=C(NCC(F)(F)F)C1(Nc2ccnc(-c3c[nH]c4ncccc34)n2)CN(S(=O)(=O)C2CC2)C1 ; response: value
Reply: 7.30 to 7.70

Query: State its pIC50 on UniProt:P52333: O=C(CC1(n2cc(-c3c[nH]c4ncccc34)cn2)CCS(=O)(=O)CC1)NCC(F)(F)F
Reply: < 7.30

Query: Field: pIC50 (UniProt:P52333). Entry: O=C(NCC(F)(F)F)C1(Nc2nc(-c3c[nH]c4ncccc34)ncc2F)CN(S(=O)(=O)C2CC2)C1
Reply: 7.30 to 7.70

Query: Reported pIC50 for UniProt:P52333, given CC(C)(CC(=O)NCC(F)(F)F)n1cc(-c2c[nH]c3ncccc23)cn1 ?
Reply: < 7.30

Query: Quick check: pIC50 on UniProt:P52333, item CCS(=O)(=O)N1CC(CC(=O)NC)(n2cc(-c3ccnc4[nH]ccc34)cn2)C1 ?
Reply: < 7.30

Query: Request: pIC50, test system UniProt:P52333, entry CCS(=O)(=O)N1CC(C#N)(Nc2ccnc(-c3ncnc4[nH]ccc34)n2)C1
Reply: < 7.30

Query: Reported pIC50 for UniProt:P52333, given CS(=O)(=O)N1CCC(CC(=O)NCC(F)(F)F)(n2cc(-c3ccnc4[nH]ccc34)cn2)CC1 ?
Reply: < 7.30

* * *

# measurement target: UniProtKB P23458
# Sequence (P23458 whole entry): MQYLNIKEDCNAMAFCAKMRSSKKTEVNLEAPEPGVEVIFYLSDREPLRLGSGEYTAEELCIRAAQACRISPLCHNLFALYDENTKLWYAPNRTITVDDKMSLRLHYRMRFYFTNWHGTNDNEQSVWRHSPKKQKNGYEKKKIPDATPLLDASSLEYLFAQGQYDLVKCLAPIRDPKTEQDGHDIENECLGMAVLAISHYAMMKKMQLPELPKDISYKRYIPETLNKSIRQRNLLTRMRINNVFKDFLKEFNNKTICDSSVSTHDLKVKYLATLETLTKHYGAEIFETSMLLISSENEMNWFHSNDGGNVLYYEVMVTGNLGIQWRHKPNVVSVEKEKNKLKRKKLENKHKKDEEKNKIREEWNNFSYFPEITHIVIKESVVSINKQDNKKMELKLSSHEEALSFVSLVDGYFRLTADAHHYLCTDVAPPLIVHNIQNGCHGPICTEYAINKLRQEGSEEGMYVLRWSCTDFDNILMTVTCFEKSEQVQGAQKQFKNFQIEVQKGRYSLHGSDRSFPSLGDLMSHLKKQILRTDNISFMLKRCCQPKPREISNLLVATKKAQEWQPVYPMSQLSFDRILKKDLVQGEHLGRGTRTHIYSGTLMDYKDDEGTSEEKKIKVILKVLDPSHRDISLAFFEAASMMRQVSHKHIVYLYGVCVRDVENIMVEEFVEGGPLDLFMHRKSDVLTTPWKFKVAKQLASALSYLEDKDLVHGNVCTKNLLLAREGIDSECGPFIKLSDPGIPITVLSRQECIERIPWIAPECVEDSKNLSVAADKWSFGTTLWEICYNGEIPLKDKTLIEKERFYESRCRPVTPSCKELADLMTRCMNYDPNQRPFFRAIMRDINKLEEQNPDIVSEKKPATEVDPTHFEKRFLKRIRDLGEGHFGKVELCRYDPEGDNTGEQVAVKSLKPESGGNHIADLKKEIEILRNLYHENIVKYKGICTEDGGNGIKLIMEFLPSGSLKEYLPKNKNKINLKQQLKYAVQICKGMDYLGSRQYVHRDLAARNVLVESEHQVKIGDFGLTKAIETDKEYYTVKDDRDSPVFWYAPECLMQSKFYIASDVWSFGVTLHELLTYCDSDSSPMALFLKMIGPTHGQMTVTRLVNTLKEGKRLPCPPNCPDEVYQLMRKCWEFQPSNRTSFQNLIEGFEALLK
# test: Inhibition of JAK1, luminescence kinase assay (ADP-Glo)
# measurement setup: purified recombinant JAK1
IC50 reference

CCS(=O)(=O)N1CC(C#N)(Nc2ccnc(-c3c[nH]c4ncccc34)n2)C1    > 50 nM

Query: Lookup: IC50 / UniProtKB P23458 / CS(=O)(=O)N1CCC(CC(=O)NCC(F)(F)F)(n2cc(-c3ccnc4[nH]ccc34)cn2)CC1
Reply: 20 to 50 nM

Query: Query for UniProtKB P23458: what IC50 does the record show for O=C(CC1(n2cc(-c3ncnc4[nH]ccc34)cn2)CCS(=O)(=O)CC1)NCC(F)(F)F ?
Reply: 20 to 50 nM

Query: Could you share what IC50 was measured for O=C(CC1(n2cc(-c3c[nH]c4ncccc34)cn2)CCS(=O)(=O)CC1)NCC(F)(F)F , tested on UniProtKB P23458?
Reply: 20 to 50 nM

Query: Field: IC50 (UniProtKB P23458). Entry: CNC(=O)CC1(n2cc(-c3ncnc4[nH]ccc34)cn2)CN(S(C)(=O)=O)C1
Reply: > 50 nM

Query: Form: Entry = N#CC1(Nc2ccnc(-c3ncnc4[nH]ccc34)n2)CCS(=O)(=O)CC1 | System = UniProtKB P23458 | IC50 = ____
Reply: > 50 nM
